assayed system: DCN1-like protein 1/NEDD8-conjugating enzyme Ubc12 (Homo sapiens, UniProt Q96GG9)
Sequence (Q96GG9 whole entry): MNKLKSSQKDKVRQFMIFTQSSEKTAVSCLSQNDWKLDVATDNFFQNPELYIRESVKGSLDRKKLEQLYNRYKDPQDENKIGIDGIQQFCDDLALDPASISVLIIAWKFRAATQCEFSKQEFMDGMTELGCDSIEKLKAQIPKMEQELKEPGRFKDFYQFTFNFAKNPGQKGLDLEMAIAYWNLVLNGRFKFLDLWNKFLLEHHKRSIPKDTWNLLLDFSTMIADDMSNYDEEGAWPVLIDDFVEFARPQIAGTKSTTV
Sequence (P61081 whole entry, further chain): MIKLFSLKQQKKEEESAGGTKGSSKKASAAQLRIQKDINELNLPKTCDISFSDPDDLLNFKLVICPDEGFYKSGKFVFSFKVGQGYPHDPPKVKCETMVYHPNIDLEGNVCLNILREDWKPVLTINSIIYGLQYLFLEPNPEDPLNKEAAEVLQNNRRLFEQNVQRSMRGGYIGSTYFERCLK
experiment: Inhibition of GST-tagged DCN1 (unknown origin)/acetylated-biotin tagged UBC12 (unknown origin) protein-protein interaction incubated for 30 mins by HTRF assay
measured metric: IC50 (nM)

chemical smiles	assayed system	endpoint unit	sign qualifier	result
O=C(CCn1c(SCC(=O)Nc2ccccc2)nnc1-c1ccc(Cl)cc1)Nc1cccc(C(F)(F)F)c1	DCN1-like protein 1/NEDD8-conjugating enzyme Ubc12 (Homo sapiens, UniProt Q96GG9)	nM	>	20000
O=C(CCn1c(-c2ccc(O)cc2)n[nH]c1=S)NCc1cccc(C(F)(F)F)c1	DCN1-like protein 1/NEDD8-conjugating enzyme Ubc12 (Homo sapiens, UniProt Q96GG9)	nM	=	43.1
COc1ccc(-c2n[nH]c(=S)n2CCC(=O)Nc2cc(C)ccc2O)cc1	DCN1-like protein 1/NEDD8-conjugating enzyme Ubc12 (Homo sapiens, UniProt Q96GG9)	nM	=	1460
COc1ccc(CNC(=O)CCn2c(-c3ccc(Cl)cc3)n[nH]c2=S)cc1	DCN1-like protein 1/NEDD8-conjugating enzyme Ubc12 (Homo sapiens, UniProt Q96GG9)	nM	>	20000
COc1ccc(-c2n[nH]c(=S)n2CCC(=O)Nc2cc(C#N)[nH]n2)cc1	DCN1-like protein 1/NEDD8-conjugating enzyme Ubc12 (Homo sapiens, UniProt Q96GG9)	nM	>	20000

* * *

assayed system: DCN1-like protein 1/NEDD8-conjugating enzyme Ubc12 (Homo sapiens)
experiment: Inhibition of GST-tagged DCN1 (unknown origin)/acetylated-biotin tagged UBC12 (unknown origin) protein-protein interaction incubated for 30 mins by HTRF assay
Catalogue of molecules with associated IC50
measured metric: IC50 (µM)

chemical smiles	assayed system	measured metric	endpoint unit	sign qualifier	result
O=C(CCn1c(-c2ccncc2)n[nH]c1=S)Nc1cccc(C(F)(F)F)c1	DCN1-like protein 1/NEDD8-conjugating enzyme Ubc12 (Homo sapiens)	IC50	µM	=	0.221
O=C(CSc1nnc(-c2ccc(Cl)cc2)n1CCC(=O)Nc1cccc(C(F)(F)F)c1)NC(=O)Nc1ccccc1	DCN1-like protein 1/NEDD8-conjugating enzyme Ubc12 (Homo sapiens)	IC50	µM	>	20
O=C(CCn1c(-c2ccc(F)cc2)n[nH]c1=S)Nc1cccc(C(F)(F)F)c1	DCN1-like protein 1/NEDD8-conjugating enzyme Ubc12 (Homo sapiens)	IC50	µM	=	0.0189
CC(C)(C)c1ccc(NC(=O)CCn2c(-c3ccc(Cl)cc3)n[nH]c2=S)cc1	DCN1-like protein 1/NEDD8-conjugating enzyme Ubc12 (Homo sapiens)	IC50	µM	=	0.00877
O=C(CCCn1c(-c2ccc(Cl)cc2)n[nH]c1=S)Nc1cccc(C(F)(F)F)c1	DCN1-like protein 1/NEDD8-conjugating enzyme Ubc12 (Homo sapiens)	IC50	µM	=	0.0452

* * *

assayed system: DCN1-like protein 1/NEDD8-conjugating enzyme Ubc12 (Homo sapiens)
experiment: Inhibition of GST-tagged DCN1 (unknown origin)/acetylated-biotin tagged UBC12 (unknown origin) protein-protein interaction incubated for 30 mins by HTRF assay
measured metric: IC50 (nM)

chemical smiles	assayed system	endpoint unit	sign qualifier	result
CC(C)(C)c1ccc(O)c(NC(=O)CCn2c(-c3ccc(Cl)cc3)n[nH]c2=S)c1	DCN1-like protein 1/NEDD8-conjugating enzyme Ubc12 (Homo sapiens)	nM	=	195
COc1ccc(-c2n[nH]c(=S)n2CCC(=O)Nc2cc(-c3ccccc3)ccc2O)cc1	DCN1-like protein 1/NEDD8-conjugating enzyme Ubc12 (Homo sapiens)	nM	=	1110
O=C(CCn1c(-c2ccc(Cl)cc2)n[nH]c1=S)Nc1ccc(Br)cc1	DCN1-like protein 1/NEDD8-conjugating enzyme Ubc12 (Homo sapiens)	nM	=	25.6
O=C(CCn1c(-c2ccc(Cl)cc2)n[nH]c1=S)NCc1ccoc1	DCN1-like protein 1/NEDD8-conjugating enzyme Ubc12 (Homo sapiens)	nM	>	20000
O=C(CCn1c(-c2ccc(Cl)cc2)n[nH]c1=S)Nc1ccccc1	DCN1-like protein 1/NEDD8-conjugating enzyme Ubc12 (Homo sapiens)	nM	=	545

* * *

experiment: Inhibition of GST-tagged DCN2 (unknown origin)/acetylated-biotin tagged UBC12 (unknown origin) protein-protein interaction assessed as inhibition constant incubated for 30 mins by HTRF assay

chemical smiles	endpoint unit	Ki
C#CCSc1nc(Sc2nccs2)c(C#N)c(-c2ccc(C)cc2)n1	nM	66.2
COc1cc(-c2nc(SCc3ccc(Cl)cc3)nc(Sc3nnnn3C)c2C#N)cc(OC)c1OC	nM	18.8

* * *

assayed system: DCN1-like protein 1/NEDD8-conjugating enzyme Ubc12 (Homo sapiens, UniProt Q96GG9)
experiment: Inhibition of GST-tagged DCN1 (unknown origin)/acetylated-biotin tagged UBC12 (unknown origin) protein-protein interaction incubated for 30 mins by HTRF assay
pIC50: −log10 of the molar value.
Everything with pIC50 lower than 6 is Not met; everything else, including exactly 6, is Met.

chemical smiles	group label
O=C(CCn1c(-c2ccc(Cl)cc2)n[nH]c1=S)Nc1cccc(Br)c1	Met
O=C(CCn1c(-c2ccc(O)cc2)n[nH]c1=S)Nc1ccc(C(F)(F)F)cc1	Met
COc1ccc(-c2n[nH]c(=S)n2CCC(=O)Nc2cc(C(C)(C)C)ccc2O)cc1	Not met
O=C(CCn1c(-c2ccc([N+](=O)[O-])cc2)n[nH]c1=S)Nc1cccc(C(F)(F)F)c1	Met
Cc1cccc2[nH]c(CSc3nnc(-c4ccc(Cl)cc4)n3CCC(=O)Nc3cccc(C(F)(F)F)c3)nc12	Not met
O=C(CCn1c(-c2ccc(Cl)cc2)n[nH]c1=S)Nc1cc(-c2ccccc2)ccc1O	Met
COc1ccc(NC(=O)CCn2c(-c3ccc(Cl)cc3)n[nH]c2=S)cc1	Met
O=C(CCn1c(-c2ccc(Cl)cc2)n[nH]c1=S)Nc1ccc(O)cc1	Not met

* * *

experiment: Inhibition of GST-tagged DCN5 (unknown origin)/acetylated-biotin tagged UBC12 (unknown origin) protein-protein interaction assessed as inhibition constant incubated for 30 mins by HTRF assay

chemical smiles	endpoint unit	sign qualifier	Ki
C#CCSc1nc(Sc2nccs2)c(C#N)c(-c2ccc(C)cc2)n1	µM	=	2.14
COc1cc(-c2nc(SCc3ccc(Cl)cc3)nc(Sc3nnnn3C)c2C#N)cc(OC)c1OC	µM	>	20

* * *

assayed system: DCN1-like protein 1/NEDD8-conjugating enzyme Ubc12 (Homo sapiens)
experiment: Inhibition of GST-tagged DCN1 (unknown origin)/acetylated-biotin tagged UBC12 (unknown origin) protein-protein interaction incubated for 30 mins by HTRF assay
pIC50: −log10 of the molar value.

chemical smiles	pIC50
COc1ccc(-c2n[nH]c(=S)n2CCC(=O)Nc2cccc(C(F)(F)F)c2)cc1	7.85
CSc1nnc(-c2ccc(Cl)cc2)n1CCC(=O)Nc1cccc(C(F)(F)F)c1	5.79
O=C(CCn1c(-c2cccc(Cl)c2)n[nH]c1=S)Nc1cccc(C(F)(F)F)c1	7.70
Cc1ccc(O)c(NC(=O)CCn2c(-c3ccc(Cl)cc3)n[nH]c2=S)c1	6.19
O=C(CCn1c(-c2ccc(Cl)cc2)n[nH]c1=O)Nc1cccc(C(F)(F)F)c1	5.12
